- Procedure Summary: Cmax in Sprague-Dawley rat at 3 mg/kg, iv by LC-MS/MS analysis
- Assay type: ADME, organism-based
- Condition Details: in vivo
Quantity Kind: Cmax (ng/mL)
Quick note: give the figure in ng/mL, leave out the unit.

// CN(Cc1ccc(N2CCN(Cc3ccc(F)cc3Br)CC2)cc1)CC(O)(Cn1cncn1)c1ccc(F)cc1F (stereo unspecified) : Cmax value = 535

###

Below, each of the molecules is paired with its reported MIC80 value.
- System: Candida albicans
- Procedure Summary: Antifungal activity against Candida albicans GIM 2.194 assessed as inhibition of fungal growth by CLSI M27-A3 guidelines based method
- Assay type: functional
Quick note: give the figure in µg/mL, leave out the unit.

CN(Cc1ccc(N2CCN(Cc3ccc(I)cc3)CC2)cc1)CC(O)(Cn1cncn1)c1ccc(F)cc1F (centres undefined) | 0.013
CN(Cc1ccc(N2CCN(Cc3ccc(C#N)cc3)CC2)cc1)CC(O)(Cn1cncn1)c1ccc(F)cc1F (centres undefined) | 0.05
CN(Cc1ccc(N2CCN(Cc3c(F)cccc3Br)CC2)cc1)CC(O)(Cn1cncn1)c1ccc(F)cc1F (centres undefined) | 0.1

// CN(Cc1ccc(N2CCN(Cc3c(Br)cccc3Br)CC2)cc1)CC(O)(Cn1cncn1)c1ccc(F)cc1F (centres undefined) : MIC80 value = 0.006

// CN(Cc1ccc(N2CCN(Cc3ccc(Cl)cc3Br)CC2)cc1)CC(O)(Cn1cncn1)c1ccc(F)cc1F (centres undefined) : MIC80 value = 0.006

// CN(Cc1ccc(N2CCN(Cc3cccc(Cl)c3)CC2)cc1)CC(O)(Cn1cncn1)c1ccc(F)cc1F (centres undefined) : MIC80 value = 0.013

###

- Procedure Summary: MRT(0 to t) in Sprague-Dawley rat at 3 mg/kg, iv by LC-MS/MS analysis
- Type: ADME, organism-based
- Condition Details: in vivo
Quantity Kind: MRT last (min)
Quick note: give the figure in min, leave out the unit.

// CN(Cc1ccc(N2CCN(Cc3ccc(F)cc3Br)CC2)cc1)CC(O)(Cn1cncn1)c1ccc(F)cc1F (stereo unspecified) : MRT last value = 28.7

###

- Procedure Summary: Cytotoxicity against HUVEC cells assessed as inhibition of cell growth incubated for 72 hrs by MTT assay
- Assay type: toxicity, cell-based
- Condition Details: human
Quantity Kind: IC50 at 72 h

Look over these answered cases.
CN(Cc1ccc(I)cc1)CC(O)(Cn1cncn1)c1ccc(F)cc1F (stereo not drawn) | > 10 µM
CN(Cc1ccc(N2CCN(Cc3ccc(F)cc3Br)CC2)cc1)CC(O)(Cn1cncn1)c1ccc(F)cc1F (stereo not drawn) | > 10 µM

// below: IC50 at 72 h requested for another compound
// OC(Cn1cncn1)(Cn1cncn1)c1ccc(F)cc1F : IC50 at 72 h value = > 40 µM

###

- System: Candida albicans
- Procedure Summary: Antifungal activity against fluconazole and iodiconazole resistant Candida albicans clinical isolate 17# assessed as inhibition of fungal growth by CLSI M27-A3 guidelines based method
- Format: functional
Below, each of the compounds is paired with its reported MIC80 value.
Quick note: give the figure in µg/mL, leave out the unit.

Look over these answered cases.
CN(Cc1ccc(N2CCN(Cc3cc(F)ccc3Br)CC2)cc1)CC(O)(Cn1cncn1)c1ccc(F)cc1F (stereo not given) | 0.25
CN(Cc1ccc(N2CCN(Cc3ccc(C(C)(C)C)cc3)CC2)cc1)CC(O)(Cn1cncn1)c1ccc(F)cc1F (stereo not given) | 0.125
CN(Cc1ccc(N2CCN(Cc3ccc(OC(F)(F)F)cc3)CC2)cc1)CC(O)(Cn1cncn1)c1ccc(F)cc1F (stereo not given) | 0.125

// CN(Cc1ccc(N2CCN(Cc3ccc(C(F)(F)F)cc3)CC2)cc1)CC(O)(Cn1cncn1)c1ccc(F)cc1F (stereo not given) : MIC80 value = 0.125

###

- System: Candida tropicalis
- Procedure Summary: Antifungal activity against Candida tropicalis GIM 2.183 assessed as inhibition of fungal growth by CLSI M27-A3 guidelines based method
- Format: functional
hey, just use Condition met if measured MIC80 is less than 0.1 µg/mL, otherwise Condition not met

These recorded examples may help you get a feel for the data.
CN(Cc1ccc(N2CCN(Cc3ccc(Cl)cc3Br)CC2)cc1)CC(O)(Cn1cncn1)c1ccc(F)cc1F (stereo unspecified) | Condition met
CN(Cc1ccc(N2CCN(C(=O)C3CC3)CC2)cc1)CC(O)(Cn1cncn1)c1ccc(F)cc1F (stereo unspecified) | Condition not met
CN(Cc1ccc(N2CCN(Cc3ccc(S(C)(=O)=O)cc3)CC2)cc1)CC(O)(Cn1cncn1)c1ccc(F)cc1F (stereo unspecified) | Condition not met

Criterion: MIC80 strictly below 0.1 µg/mL. Is it met by CN(Cc1ccc(N2CCN(C(=O)c3ccccc3)CC2)cc1)CC(O)(Cn1cncn1)c1ccc(F)cc1F (stereo unspecified) ?
Condition met

Criterion: MIC80 strictly below 0.1 µg/mL. Is it met by Cc1ccc(CN2CCN(c3ccc(CN(C)CC(O)(Cn4cncn4)c4ccc(F)cc4F)cc3)CC2)cc1 (stereo unspecified) ?
Condition not met

Criterion: MIC80 strictly below 0.1 µg/mL. Is it met by OC(Cn1cncn1)(Cn1cncn1)c1ccc(F)cc1F ?
Condition not met

Criterion: MIC80 strictly below 0.1 µg/mL. Is it met by CN(Cc1ccc(N2CCN(Cc3ccc(-c4ccccc4)cc3)CC2)cc1)CC(O)(Cn1cncn1)c1ccc(F)cc1F (stereo unspecified) ?
Condition met

Criterion: MIC80 strictly below 0.1 µg/mL. Is it met by CN(Cc1ccc(N2CCN(Cc3c(Cl)cccc3Br)CC2)cc1)CC(O)(Cn1cncn1)c1ccc(F)cc1F (stereo unspecified) ?
Condition met

Criterion: MIC80 strictly below 0.1 µg/mL. Is it met by CN(Cc1ccc(N2CCN(Cc3ccc(I)cc3)CC2)cc1)CC(O)(Cn1cncn1)c1ccc(F)cc1F (stereo unspecified) ?
Condition met

###

- Tested on: Candida albicans
- Procedure Summary: Antifungal activity against Candida albicans GIM 2.194 assessed as inhibition of fungal growth by CLSI M27-A3 guidelines based method
- Format: functional
Quantity Kind: MIC80 (µg/mL)
Quick note: give the figure in µg/mL, leave out the unit.

CN(Cc1ccc(N2CCN(Cc3ccccc3Cl)CC2)cc1)CC(O)(Cn1cncn1)c1ccc(F)cc1F (stereo not drawn) | 0.006
CN(Cc1ccc(N2CCN(Cc3ccc(N)cc3)CC2)cc1)CC(O)(Cn1cncn1)c1ccc(F)cc1F (stereo not drawn) | 3.2

// below: MIC80 requested for another molecule
Recorded MIC80 for CN(Cc1ccc(I)cc1)CC(O)(Cn1cncn1)c1ccc(F)cc1F (stereo not drawn) on Candida albicans was 0.025

###

- System: Candida tropicalis
- Procedure Summary: Antifungal activity against Candida tropicalis GIM 2.183 assessed as inhibition of fungal growth by CLSI M27-A3 guidelines based method
- Format: functional
Below, each of the compounds is paired with its reported MIC80 value.
Quick note: give the figure in µg/mL, leave out the unit.

Look over these answered cases.
CN(Cc1ccc(N2CCN(Cc3ccc(F)cc3)CC2)cc1)CC(O)(Cn1cncn1)c1ccc(F)cc1F (configuration not stated) | 0.1
C#Cc1ccc(CN2CCN(c3ccc(CN(C)CC(O)(Cn4cncn4)c4ccc(F)cc4F)cc3)CC2)cc1 (configuration not stated) | 0.1
CN(Cc1ccc(N2CCN(Cc3cc(F)ccc3Br)CC2)cc1)CC(O)(Cn1cncn1)c1ccc(F)cc1F (configuration not stated) | 0.006
CN(Cc1ccc(N2CCN(Cc3ccccc3I)CC2)cc1)CC(O)(Cn1cncn1)c1ccc(F)cc1F (configuration not stated) | 0.013

Recorded MIC80 for CN(Cc1ccc(N2CCN(Cc3c(Br)cccc3Br)CC2)cc1)CC(O)(Cn1cncn1)c1ccc(F)cc1F (configuration not stated) on Candida tropicalis was 0.006

Recorded MIC80 for CN(Cc1ccc(N2CCN(Cc3ccc(C(F)(F)F)cc3Br)CC2)cc1)CC(O)(Cn1cncn1)c1ccc(F)cc1F (configuration not stated) on Candida tropicalis was 0.025

Recorded MIC80 for CN(Cc1ccc(N2CCN(Cc3ccc(N)cc3)CC2)cc1)CC(O)(Cn1cncn1)c1ccc(F)cc1F (configuration not stated) on Candida tropicalis was 1.6
